Measured values drawn from ChEMBL document CHEMBL1136183 for this set.

Test system: SK-MEL-2
ASSAY INFO: In vitro percent inhibition evaluated against human melanoma cancer (SKMEL-2 cell line) at >20 ug/mL
Assay type: functional
OUTCOME MEASURE: Inhibition (%)
Report the value in % with no unit label.

Entry O=C(O)Cc1cccc2nc(-c3ccccc3F)cc(O)c12 — recorded Inhibition = 9

The compound listed as O=C(O)Cc1ccc2c(O)cc(-c3ccccc3F)nc2c1 has a reported Inhibition of 14

Lab note: measured Inhibition of COC(=O)Cc1cccc2c(O)cc(-c3ccccc3F)nc12 was 11

Form: compound = O=C(O)Cc1ccc2nc(-c3ccccc3F)cc(O)c2c1 ; Inhibition = 17

According to the records, this compound COC(=O)Cc1cccc2c(O)cc(-c3ccccc3)nc12 displays Inhibition of 12
